# TARGET: GST-tagged GDP-loaded KRAS G12V (amino acids 1-169) (Homo sapiens, UniProt P01116, G12V)
# Construct: GST-tagged GDP-loaded KRAS G12V (amino acids 1-169)
# Sequence (P01116 1-169 isoform P01116-2 G12V): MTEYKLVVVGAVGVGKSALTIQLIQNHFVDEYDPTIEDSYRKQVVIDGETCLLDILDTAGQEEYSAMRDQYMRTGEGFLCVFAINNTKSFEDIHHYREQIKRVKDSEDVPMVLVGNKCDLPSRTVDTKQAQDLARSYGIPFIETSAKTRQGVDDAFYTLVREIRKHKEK
# TEST_DESCRIPTION: KRAS G12V probe displacement assay (TR-FRET)
# TEST_CONTEXT: displacement of biotinylated probe 2 from GDP-loaded KRAS G12V

MOLECULE	UNIT_ABBREV	IC50
Nc1nc2c(-c3c(C(F)(F)F)cc4c(N5CCC6(CC5)CNC(=O)O6)nc(OC[C@@]56CCCN5C[C@H](F)C6)nc4c3F)ccc(F)c2s1	nM	0.8
Nc1nc2c(-c3c(C(F)(F)F)cc4c(N5CCC6(CC5)CN(CCO)C(=O)O6)nc(OC[C@@]56CCCN5C[C@H](F)C6)nc4c3F)ccc(F)c2s1	nM	2.2
N#CCC1CCCN(c2nc(OC[C@@]34CCCN3C[C@H](F)C4)nc3c(F)c(-c4cc(N)cc(Cl)c4C(F)(F)F)ncc23)C1 (stereo partly drawn)	nM	6.3
